Assay Protocol: NCI Yeast Anticancer Drug Screen. Data for the sgs1 mgt1 strain (AID 161);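 also: 0% = growth of cultures given vehicle only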
Condition Description: S. cerevisiae sgs1 mgt1 strain, at 50.0 µM (retest, dose inferred, filed as 5.0), hits give high values
Experimental: Growth inhibition of yeast strains with defined genetic alterations is measured as a screen for potential anti-cancer activity. Selected strains with alterations in DNA damage repair or cell cycle control were exposed to compounds and growth inhibition was measured relative to vehicle treated controls. The strain used in this assay is sgs1 mgt1
The panel holds about 79,000 compounds, 15% with a hit somewhere; the sample as a whole holds those more often. Activity calls are given as the source filed them. Rule as the data show it: active = growth inhibition above about 70%; inactive = the rest.
Property Name: growth inhibition

COC(C)(C)[C@@H]1CCCN1C1=C(C)C(=O)OC1 = 99% (active)
COc1ccc2c(c1)OC(c1ccccc1O)CC2=O (stereo unspecified) = 11% (inactive)
CN(C)CCCNc1ccc(O)c2c1C(=O)c1ccccc1C2=O = 99% (active)
CCOC(=O)C1=C(C)NC(C)=C(C(=O)OCC)C1c1ccnc2ccccc12 = 96% (active)
COc1ccc(C2(O)c3ccccc3C(=O)C2c2ccccn2)cc1 (stereo unspecified) = -1% (inactive)
c1ccc2c(c1)N=c1ccccc1=P21c2ccccc2Nc2ccccc21 = 99% (active)
O=C1c2c(F)c(F)c(F)c(F)c2SC2=NCCN12 = 97% (active)
O=C(Nc1cccnc1)c1ccc(CSc2ccc(Cl)cc2)o1 = 97% (active)
Nc1cc(Cl)ccc1S = 47% (inactive)
Cn1c(=O)c2c(nc(CCCCCCCc3nc4c(c(=O)n(C)c(=O)n4C)n3C)n2C)n(C)c1=O = 10% (inactive)
CCCCCCCCCCCCO = 28% (inactive)
CCCCCCCCCCCCCCCCCC[N+](C)(C)Cc1ccc(C[N+](C)(C)CCCCCCCCCCCCCCCCCC)cc1 = 51% (inactive)
Cc1ccc(S(=O)(=O)OC(COC(=O)c2ccc([N+](=O)[O-])cc2)C2OC(C)(C)OC2C(SCc2ccccc2)SCc2ccccc2)cc1 (stereo unspecified) = 5% (inactive)
O=C(O)/C(Cl)=C(\Cl)C(=O)Nc1c(Cl)cccc1Cl = 6% (inactive)
COc1ccc(Nc2nc3ccccc3s2)cc1 = 35% (inactive)
Cc1nn(C)c2ccc3ccccc3c(=O)c12 = 50% (inactive)
CCc1ccccc1NC1=C(Cl)C(=O)c2ccccc2C1=O = 99% (active)
CCC1CCC2=C(C1)C(=O)c1ccccc1C2=O (stereo unspecified) = 96% (active)
CCCCCCCCCCCC(C)N (stereo unspecified) = 91% (active)
CC(CC=NCCN=CCC(C)CC(C)(C)C)CC(C)(C)C (stereo unspecified) = 45% (inactive)
O=C(O)c1ccccc1-c1c2cc(I)c(=O)c(I)c-2oc2c(I)c(O)c(I)cc12 = 97% (active)
CCOC(=O)c1c(O)c(C)c(=O)n2c1[nH]c1cc(C)c(C)cc12 = 29% (inactive)
c1c2c(cc(-n3nnc4c3CCCCCC4)c1-n1nnc3c1CCCCCC3)CCCCCC2 = 23% (inactive)
CCOC1NC(=S)N(C2CCCCC2)C1(C)C (stereo unspecified) = 11% (inactive)
O=C1c2ccccc2C(=O)c2c(/C=C\N3CCCCC3)ccnc21 = 99% (active)
CC(/C=C/c1cccc(C)c1)=N\NC(N)=S = 34% (inactive)
CCC(COS(=O)(=O)c1ccc(C)cc1)(COS(=O)(=O)c1ccc(C)cc1)COS(=O)(=O)c1ccc(C)cc1 = -38% (inactive)
CCOC(=O)Nc1cc2c(c(N)n1)N=C(c1ccccc1)CN2 = 89% (active)
N#Cc1c([N+](=O)[O-])cc(C(F)(F)F)cc1[N+](=O)[O-] = 100% (active)
Clc1ccnc2c1ccc1c(Cl)ccnc12 = 12% (inactive)
C(=N\NC1=NCCN1)/c1cccc2cc3ccncc3nc12 = 63% (inactive)
CCCCCCc1ccc(O)cc1O = 100% (active)
Clc1cc(Cl)c2c(c1)nc(Cl)c1cc(Cl)ccc12 = 1% (inactive)
c1ccc(CC[n+]2csc3ccccc32)cc1 = 81% (active)
O=C1OC(C2OC(=O)C(=O)C2C(=O)c2ccc(Cl)cc2)C(C(=O)c2ccc(Cl)cc2)C1=O (stereo unspecified) = 64% (inactive)
COc1ccc(/C(Cl)=C(\C=O)c2ccc(Cl)c(Cl)c2)cc1 = 85% (active)
COc1ccc(-c2c(C(=O)O)[nH]c3ccccc23)cc1 = 98% (active)
Oc1ccc(C2CCCCC2)cc1 = 54% (inactive)
NC(c1ccccc1)P(=O)(OCc1ccc([N+](=O)[O-])cc1)OCc1ccc([N+](=O)[O-])cc1 (stereo unspecified) = -3% (inactive)
CCCCN(CCCC)CC(O)c1cc(-c2ccc(Cl)cc2)nc2cc(C)ccc12 (stereo unspecified) = 99% (active)
Nc1nnc(-c2cc(=O)c3cc(Cl)ccc3o2)s1 = 6% (inactive)
CCOC(=O)C1C(c2cccc(OC)c2O)c2cc3c(cc2OC1(C)N1CCCC1)OCO3 (stereo unspecified) = 39% (inactive)
Oc1c(Br)cc(Br)c2cccnc12 = 97% (active)
CN(C)CC1(C)CC/C(=C\c2ccc(Cl)cc2)C1=O (stereo unspecified) = 39% (inactive)
CC(C)OC1=C(Cl)C(=O)c2c(cccc2[N+](=O)[O-])C1=O = 99% (active)
C[C@H]1CC[C@@H]2[C@@H](C)[C@H]3[C@H](C[C@H]4[C@@H]5CC=C6C[C@@H](O)CC[C@]6(C)[C@H]5CC[C@]34C)N2C1 = 99% (active)
